system: MCF-7 breast cancer cells; assay: DNA synthesis assay ([3H]-thymidine incorporation), MCF-7; assay type: cell-based, human; settings: Homo sapiens, MCF7; MCF-7 cells, 24 h, mean ± SD of four independent experiments; read-out: IC50 inhibition of [3H]-thymidine incorporation into DNA
Parameter IC50: see the listing below.
Quick note: give the figure in µM, leave out the unit.

Examples with answers:
> print(dat)
                                   compound  parameter.measured  unit.string  quantitative.readout
1  COc1ccc(SSc2nnc(-c3ccccc3)c(-c3ccccc3)n2)cc1 [Compound 4j]                IC50           µM                    59
2  c1ccc(-c2nnc(SSc3nc4ccccc4s3)nc2-c2ccccc2)cc1 [Compound 4n]                IC50           µM                    75
3  O=[N+]([O-])c1ccc(SSc2nnc(-c3ccccc3)c(-c3ccccc3)n2)cc1 [Compound 4l]                IC50           µM                   142
4  OCCCCCCCCCCCSSc1nnc(-c2ccccc2)c(-c2ccccc2)n1 [Compound 4g]                IC50           µM                   188

Attention now turns to another entry.
Incoming: Fill blank: measured IC50 of the compound CC(C)SSc1nnc(-c2ccccc2)c(-c2ccccc2)n1 [Compound 4a] is ____.
Outgoing: 188

====

test system: MCF-7 breast cancer cells; test: DNA synthesis assay ([3H]-thymidine incorporation), MCF-7; assay type: cell-based, human; details: Homo sapiens, MCF7; MCF-7 cells, 24 h, mean ± SD of four independent experiments; read-out: IC50 inhibition of [3H]-thymidine incorporation into DNA
Reported IC50 values follow for various molecules
Number only, in µM; omit the unit.

// worked examples, IC50 included
> print(dat)
                                   molecule  unit.string  quantitative.readout
1  Cc1ccc(SSc2nnc(-c3ccccc3)c(-c3ccccc3)n2)cc1 [Compound 4i]           µM                    60
2  c1ccc(SSc2nnc(-c3ccccc3)c(-c3ccccc3)n2)cc1 [Compound 4h]           µM                    68

Next item in the queue.
Incoming: Which IC50 reading was recorded for the molecule Clc1ccc(SSc2nnc(-c3ccccc3)c(-c3ccccc3)n2)cc1 [Compound 4k] ?
Outgoing: 83

====

tested on: MCF-7 breast cancer cells; assay: DNA synthesis assay ([3H]-thymidine incorporation), MCF-7; type: cell-based, human; settings: Homo sapiens, MCF7; MCF-7 cells, 24 h, mean ± SD of four independent experiments; read-out: IC50 inhibition of [3H]-thymidine incorporation into DNA
PARAMETER MEASURED: IC50

Solved entries (count: 2):
> print(dat)
                              smiles.str    result
1   CCCCSSc1nnc(-c2ccccc2)c(-c2ccccc2)n1  > 200 µM
2  CCCCCSSc1nnc(-c2ccccc2)c(-c2ccccc2)n1  > 200 µM

Now turn to the next compound.
Incoming: Name the reported IC50 value associated with the compound CCCCCCCCCCCCSSc1nnc(-c2ccccc2)c(-c2ccccc2)n1
Outgoing: > 200 µM
